Would you kindly list MIC for each of these sequences?
# Test system: P. aeruginosa ATCC 27853
# Type: cell-based, Pseudomonas aeruginosa
# details: ATCC 27853, 18 h
Ends that are not written are not given here.
Give bare numbers, in µM.

Below, each entry is followed by its recorded MIC result.
seq | MIC (µM)
WRIRRRWPRLPRPRWRPRFPPPFPIPR [Peptide B7-T11] | 16
WRIRRRWPRLPRPRWRPWFPPR [Peptide B7-L6] | 4
WRIRRRWPRLPRPRWRPRFPPP [Peptide B7-T6] | 8
WRIRRRWPRLPRPRWRPWFPPRFPIPR [Peptide B7-L11] | 8
WRIRRRWPRLPRPRWRPLPFPR [Peptide B7-B6] | 8

Turning now to a further sequence:
Item WRIRRRWPRLPRPRWRPLPFPRPGPRP [Peptide B7-B11] has what recorded MIC?
16
